experiment: M. tuberculosis growth inhibition, HTS (AID 1259417);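 note: bacteria grown with compound for 5 days at 37 °C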; details: M. tuberculosis DsRed fluorescence growth inhibition; concentration not given here
Hit rate of the full screen: of about 1,100 compounds, about 760 (69%) were called active. The rule behind the calls is not given here. So high a share suggests a set chosen from earlier hits. This is one part of the list.
Output constraint: value belongs to TRUE = active, FALSE = inactive

// below: answered molecules
Query :: So what was the verdict on CCN(CC)c1ccc(NC(=S)NCc2ccc(Cl)cc2)cc1 in this test?
Result :: TRUE

Query :: So what was the verdict on Cc1ccccc1OC(=O)c1sc2ccccc2c1Cl in this test?
Result :: TRUE

Now look at this entry.
Query :: So what was the verdict on O=C(CCN1C(=O)c2ccccc2C1=O)Oc1cccc2cccnc12 in this test?
Result :: TRUE
